The following compounds are listed with their measured GI50 values.
system: EKVX; test: NCI tumour cell line growth inhibition, 48 h
Calls of active or inactive are those of the source. Rule as the data show it: active = GI50 up to about 1.1 µM and inactive = higher. Peptide text beside a SMILES is read from it. * marks the point of attachment. OSu = O=C1CCC(=O)N1O*
measurement_name: GI50

COc1ccc(NC(C)=O)cc1N1C(=O)/C(=C\c2cc(OC)c(OC)c(OC)c2)SC1c1ccccc1 (centres undefined)	24.9 µM (inactive)
O=c1c2cc(Br)ccc2ncn1COCc1ccccc1	88.3 µM (inactive)
ON=C1CCC(c2ccccc2)CC1 (centres undefined)	> 100 µM (inactive)
Cc1cc(N(CCOS(C)(=O)=O)CCOS(C)(=O)=O)ccc1/C=N/c1ccc(-c2csc(-c3ccc(Br)cc3)n2)cc1	6.24 µM (inactive)
N=C1OC(c2cccc(Cl)c2)C(NNS(=O)(=O)c2ccccc2)=C1O (centres undefined)	68.4 µM (inactive)
CC(C)NC(=O)OCc1c(COC(=O)NC(C)C)c(-c2ccc(Cl)c(Cl)c2)n2c1CCC2	57.1 µM (inactive)
NCCCCC(NC(=O)C(N)Cc1ccc(O)cc1)C(=O)NC(Cc1ccc(O)cc1)C(=O)NC(CCCCN)C(=O)ON1C(=O)CCC1=O (centres undefined) (H-YKYK-OSu; configuration not given here)	> 100 µM (inactive)
C=C1C(=O)O[C@H]2[C@H]([C@H](C)CCCC(C)=O)O[C@H]([C@@]3(C)CCC(=O)O3)C[C@@H]12	79.3 µM (inactive)
O=C(CCn1[nH]c(=O)c(Cl)c(Cl)c1=O)NOCCCc1ccccc1	> 100 µM (inactive)

----------
system: SNB-75; experiment: NCI tumour cell line growth inhibition, 48 h
Active and inactive are the calls of the source. Rule as the data show it: active = GI50 up to about 1.1 µM and inactive = higher.
measurement_name: GI50

O=C1[C@@H](c2ccc(Cl)cc2)[C@H]2CC=C[C@H]2N1O	> 100 µM (inactive)
c1ccc(CN2CCN3CCN(CC2)CCN(Cc2ccccc2)CC3)cc1	4.05 µM (inactive)
c1ccc(C2(c3cc4ccccc4[nH]3)OCCO2)nc1	> 100 µM (inactive)
O=C(Nc1ccc(Cl)cc1)NS(=O)(=O)c1ccc2c(c1)CCC2	> 55.6 µM (inactive)
Cn1cccc(C(=O)c2ccccc2)c1=O	> 100 µM (inactive)
C/C=C(\C)C(=O)OC1CC(OC(C)=O)C2(C(=O)OC)COC3C2C1(C)C1C2(C(=O)OC)OCC1(C3O)C1(O)C3CC(C4(O)C=COC4O3)C1(C)O2 (centres undefined)	> 100 µM (inactive)
CCc1c(-c2ccc(OC)cc2)oc(OC)c(C)c1=O	33.2 µM (inactive)
CC(C)=CC1C(C(=O)OCc2cc3c(cc2Cl)OCO3)C1(C)C (centres undefined)	26.9 µM (inactive)
CN(C)S(=O)(=O)n1ccnc1	> 100 µM (inactive)
CCOC(=O)C(=O)Nc1ccc(C)c(C)c1	> 100 µM (inactive)
O=C(NC(Cc1c[nH]c2ccccc12)C(=O)O)/C(=C/c1ccccc1O)NC(=O)c1ccccc1 (centres undefined)	17.4 µM (inactive)
c1ccncc1	85.5 µM (inactive)
CC(=O)Oc1ccc2cc(Oc3ccc(Cl)cc3)c(=O)oc2c1	75.5 µM (inactive)
CC(=O)OC1COC(N2c3ccccc3[C@@H]3CCc4c([nH]c5ccccc45)[C@@H]32)C(OC(C)=O)C1OC(C)=O.CC(=O)OC1COC(N2c3ccccc3[C@H]3CCc4c([nH]c5ccccc45)[C@H]32)C(OC(C)=O)C1OC(C)=O (some centres undefined)	11.4 µM (inactive)
O=C(Nc1cccc(NC(=O)C(=O)C2CCC3=C(Sc4ccccc4N3)C2=O)n1)C(=O)C1CCC2=C(Sc3ccccc3N2)C1=O (centres undefined)	9.68 µM (inactive)
CCOc1ccc(N/C(Cl)=C(Cl)\C(=C(\Nc2ccc(OCC)cc2)n2nnc3ccccc32)[N+](=O)[O-])cc1	18.3 µM (inactive)
Cc1ccc(S(=O)(=O)CC(=O)CC(=O)C(=O)Nc2cccc(C(F)(F)F)c2)cc1	47.6 µM (inactive)
CC(=O)c1c(-c2ccco2)c(C#N)c(=S)n(C2OC(CO)C(O)C(O)C2O)c1-c1ccccc1 (centres undefined)	69.7 µM (inactive)
CC1(C)O[C@H]2[C@H](O)C[C@](O)(CO)C[C@H]2O1	48.2 µM (inactive)

----------
test system: U-251; experiment: NCI tumour cell line growth inhibition, 48 h
The source made the active and inactive calls. Cut-off read from the data, not from the text of the source: active = GI50 up to about 1.1 µM and inactive = higher.
measurement_name: GI50

NCCOc1ccc(/C(=C(/Cl)c2ccccc2)c2ccccc2)cc1	10.9 µM (inactive)
Cc1cn(C2OC(CO[Si](C)(C)C(C)(C)C)/C(=C\C#N)C2O[Si](C)(C)C(C)(C)C)c(=O)[nH]c1=O (stereo not drawn)	38.4 µM (inactive)
COc1ccc(C(N)=O)cc1/N=N/N(C)C	> 100 µM (inactive)

----------
tested on: OVCAR-8; test: NCI tumour cell line growth inhibition, 48 h
Active and inactive are the calls of the source. Cut-off read from the data, not from the text of the source: active = GI50 up to about 1.1 µM and inactive = higher.
Outcome codes: active, inactive

COC1CC(N)C(O)C(C)O1 (stereo unspecified)	inactive
COc1cc(OC)cc(OCc2nc3cc(C(F)(F)F)ccc3nc2-c2ccccc2)c1	inactive
CC(Sc1ccccc1)C(CO)(CO)[N+](=O)[O-] (stereo unspecified)	inactive
CC(C)N(C(=O)c1ccc(NCc2cc(O)ccc2O)cc1)C(C)C	inactive
CNc1ccc(C(=O)CC(O)CCC(C)C2OC(=O)CC(O)CC(=O)CC(O)CC(O)CC(O)CC(O)CC3(O)CC(O)C(C(=O)N4CCOCC4)C(CC(OC4OC(C)C(O)C(N)C4O)\C=C/C=C\C=C/C=C/C=C/C=C\C=C/C2C)O3)cc1 (stereo unspecified)	active
O=C(CCN1CCOCC1)/C(=C/c1ccccc1)c1ccccc1	inactive

----------
tested on: K562; assay: NCI tumour cell line growth inhibition, 48 h
Calls of active or inactive are those of the source. Cut-off read from the data, not from the text of the source: active = GI50 up to about 1.1 µM and inactive = higher.
Outcome codes: active, inactive

COc1ccc(-c2cc(O)c3c(C)ccnc3n2)cc1	inactive
CC1(C)CCC[C@](C)([C@H]2CC[C@]3(C)[C@@H]2[C@H](O)C[C@@H]2[C@@]4(C)CC[C@H](O)C(C)(C)[C@@H]4[C@H](O)C[C@]23C)O1	inactive
c1ccc(CN2CCN3CCN(CC2)CCN(Cc2ccccc2)CC3)cc1	inactive
CC1C2CC=CC(=O)[C@@]2(C)CCC12OCCO2 (some centres undefined)	inactive
CCOC(=O)NC(Nc1ncccn1)(C(F)(F)F)C(F)(F)F	inactive
CN(/N=C/c1cccc2cccnc12)c1c([N+](=O)[O-])cc([N+](=O)[O-])cc1[N+](=O)[O-]	inactive
C/C(=N\NC(=O)Nc1ccccc1Cl)c1ccc(O)cc1	inactive
c1ccc([P+](c2ccccc2)(c2ccccc2)c2ccc([P+](c3ccccc3)(c3ccccc3)c3ccccc3)c3ccccc23)cc1	inactive
CSC1NNC2(C(=O)N1)c1ccccc1-c1ccccc12 (centres undefined)	inactive
C/C(=C/CC[C@](C)(OC1OC(CO)C(O)C(O)C1O)[C@H]1CC[C@]2(C)[C@@H]1CC[C@@H]1[C@@]3(C)CC[C@H](O)C(C)(C)[C@@H]3C[C@H](O)[C@]12CO)CO (some centres undefined)	inactive
Cc1ccc(C2=C(c3ccccc3)C(O)(c3ccccc3)C(c3ccccc3)=C2c2ccc(C)cc2)cc1	inactive
O=P1(Oc2ccccc2)N(CCCl)CCN1c1ccccc1 (centres undefined)	inactive
COC(=O)c1ccccc1C1CN=NC12Cc1ccccc1C2=O (centres undefined)	inactive
CCN(CC)CCOC(=O)/C(=C/c1ccc(OC)cc1)c1cc(OC)c(OC)c(OC)c1	inactive
O=[N+]([O-])C(=C(N1CCCCC1)N1CCCCC1)/C(Cl)=C(\Cl)[N+](=O)[O-]	active
c1ccc2c(c1)nc1n2CCNC1	inactive
COC1C(CO)OC(n2c3c(Cl)cccc3c3c4c(c5c6cccc(Cl)c6[nH]c5c32)C(=O)NC4=O)C(O)C1O (centres undefined)	active
CN(C)c1ccc(/N=N/c2ccncc2)cc1	inactive
CC(=O)O[C@]1(C)OC(=O)[C@@H](C)N1[N+](=O)[O-]	inactive

----------
Recorded GI50 for the following compounds
tested on: OVCAR-3; assay: NCI tumour cell line growth inhibition, 48 h
Activity calls are given as the source filed them. No stated cut-off is given here; in the data, active = GI50 up to about 1.1 µM and inactive = higher.
measurement_name: GI50

Nc1nc(Cl)c(N)c(NCC2(CO)CC2)n1	> 100 µM (inactive)
COC(=O)[C@H]1CO[C@@H](C(C)(C)C)N1C(=O)N1C=CC(=O)C[C@@H]1C	> 100 µM (inactive)
COC(=O)C(C)(C)/N=C/N(C)C	> 100 µM (inactive)
CCCCSN1C(=O)c2ccccc2C1=S	> 100 µM (inactive)
CC1(C)O[C@H]2[C@H](O)C[C@](O)(CO)C[C@H]2O1	> 100 µM (inactive)
COc1cc(/C=C/C(=O)Oc2ccccc2)ccc1C(=O)O/C=C/c1ccccc1	> 31.6 µM (inactive)
C=C(C)C1=CCC[C@]2(C1)N=C(OC)[C@@H](C(C)C)N=C2OC	> 100 µM (inactive)
CN1CCC(=O)/C(=C/c2ccccc2)C1	11.6 µM (inactive)

All values here come from ChEMBL document CHEMBL1201862.
